- Tested on: Rattus norvegicus
- Method notes: In vivo effect on mean blood pressure of anesthetized rats following 3 mg/kg i.v.
- Format: functional
- Condition: route intravenous
Could you please report measured Change for the items listed next?
Give bare numbers, in %.

Past entries and their recorded results:
• COc1cc2ncn(C3CCCN(CCCOc4ccc5c(c4)OCO5)C3)c(=O)c2cc1OC.Cl (stereo unspecified) = -20
• CCOc1ccc(OCCCN2CCCC(N3CCc4cc(OC)c(OC)cc4C3=O)C2)cc1.Cl (stereo unspecified) = -7.8
• COC(=O)c1ccc(OCCCN2CCCC(N3CCc4cc(OC)c(OC)cc4C3=O)C2)cc1.Cl (stereo unspecified) = -2.3
• COc1cc2ccn(C3CCCN(CCCOc4ccc5c(c4)OCO5)C3)c(=O)c2cc1OC.Cl (stereo unspecified) = 11
• COc1cc2c(cc1OC)C(=O)N(C1CCCN(CCCOc3ccc4c(c3)OCCO4)C1)CC2.Cl (stereo unspecified) = -12

Shifting focus to the compound that follows.
### Prompt Provide measured Change on Rattus norvegicus for `COc1cc2c(cc1OC)C(=O)N([C@@H]1CCCN(CCCOc3ccc4c(c3)OCO4)C1)CC2.Cl` please.
### Response -13
